study_target: Progestogen receptor of the uterus of rabbits (Oryctolagus cuniculus)
Construct: The uterus was removed, weighed and homogenized at 0° C; from tissue; host or cells: rabbit uterus, 105,000 g supernatant (estradiol-primed immature rabbits)
Sequence (P06186 1-930): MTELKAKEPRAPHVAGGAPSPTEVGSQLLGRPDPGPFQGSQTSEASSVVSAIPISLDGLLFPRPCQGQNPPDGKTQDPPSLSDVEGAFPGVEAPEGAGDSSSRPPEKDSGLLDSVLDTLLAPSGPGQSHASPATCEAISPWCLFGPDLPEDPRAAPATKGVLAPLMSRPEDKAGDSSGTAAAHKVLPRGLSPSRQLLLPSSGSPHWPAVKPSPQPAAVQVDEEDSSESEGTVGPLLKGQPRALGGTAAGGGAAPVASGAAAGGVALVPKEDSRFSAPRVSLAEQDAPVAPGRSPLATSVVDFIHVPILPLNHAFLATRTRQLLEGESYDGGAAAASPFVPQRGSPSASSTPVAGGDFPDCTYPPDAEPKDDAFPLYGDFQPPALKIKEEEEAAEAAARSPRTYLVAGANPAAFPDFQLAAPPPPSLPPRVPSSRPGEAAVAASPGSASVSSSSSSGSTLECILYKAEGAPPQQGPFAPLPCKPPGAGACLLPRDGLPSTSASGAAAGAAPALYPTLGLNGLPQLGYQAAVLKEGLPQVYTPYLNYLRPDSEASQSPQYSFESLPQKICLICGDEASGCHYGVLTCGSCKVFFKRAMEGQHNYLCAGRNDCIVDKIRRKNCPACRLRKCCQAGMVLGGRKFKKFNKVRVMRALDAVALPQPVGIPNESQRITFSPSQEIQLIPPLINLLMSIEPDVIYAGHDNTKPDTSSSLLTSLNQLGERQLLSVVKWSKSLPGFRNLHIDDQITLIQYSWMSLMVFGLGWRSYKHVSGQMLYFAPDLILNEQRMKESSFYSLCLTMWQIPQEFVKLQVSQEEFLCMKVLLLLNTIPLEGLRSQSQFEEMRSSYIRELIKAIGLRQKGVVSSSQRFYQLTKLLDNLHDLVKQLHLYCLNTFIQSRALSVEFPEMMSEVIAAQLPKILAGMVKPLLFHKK
protocol_text: Progestogen receptor binding (displacement of tritiated product R)
Set-up: species or system rabbit
test_settings: second table; incubation 2 H at 0° C.
reported_metric: relative affinity of tieing (ARL), Progestogen
Please reply with the number alone, leaving off any unit.

Consider the worked cases shown below.
C#C[C@@]1(O)CC[C@H]2[C@@H]3CCC4=CC(=O)CCC4=C3[C@@H](c3ccc(N(C)C)cc3)C[C@@]21C: 10
C#C[C@]1(O)CC[C@H]2[C@@H]3CCC4=CC(=O)CCC4=C3[C@@H](c3ccc(N(C)C)cc3)C[C@@]21C: 81
CN(C)c1ccc([C@H]2C[C@@]3(C)[C@@H](CC[C@@]3(O)C#CCl)[C@@H]3CCC4=CC(=O)CCC4=C32)cc1: 78

# context switch: different compound, same relative affinity of tieing (ARL), Progestogen
Asked: Request the reported relative affinity of tieing (ARL), Progestogen associated with C=C(C)C#C[C@]1(O)CC[C@H]2[C@@H]3CCC4=CC(=O)CCC4=C3[C@@H](c3ccc(N(C)C)cc3)C[C@@]21C
Given back: 81

====

study_target: Progestogen receptor of the uterus of rabbits (Oryctolagus cuniculus)
Construct: The uterus was removed, weighed and homogenized at 0° C; from tissue; host or cells: rabbit uterus, 105,000 g supernatant (estradiol-primed immature rabbits)
protocol_text: Progestogen receptor binding (displacement of tritiated product R)
Set-up: species or system rabbit
test_settings: incubation 24 H at 0° C.
relative affinity of tieing (ARL), Progestogen below 40 gives Not fulfilled; relative affinity of tieing (ARL), Progestogen at or above it gives Fulfilled.

Worked examples, 3 compounds total:
CC#C[C@]1(OC(C)=O)CC[C@H]2[C@@H]3CCc4cc(O)ccc4[C@H]3[C@@H](c3ccc(N(C)C)cc3)C[C@@]21C [2 (17 OAc)]: Fulfilled
CC#C[C@]1(O)CC[C@H]2[C@@H]3CCC4=CC(=O)C(C)(C)CC4=C3[C@@H](c3ccc(N(C)C)cc3)C[C@@]21C [Example 1]: Not fulfilled
CC#C[C@]1(O)CC[C@H]2[C@@H]3CCC4=C(CCC(=O)C4)[C@H]3[C@@H](c3ccc(N(C)C)cc3)C[C@@]21C [Example 10]: Fulfilled

From here, focus on the item given below.
Asked: Quick check, relative affinity of tieing (ARL), Progestogen >= 40? CC#C[C@]1(O)CC[C@H]2[C@@H]3CCC4=CC(=O)[C@@H](C)CC4=C3[C@@H](c3ccc(N(C)C)cc3)C[C@@]21C [5 (2β)]
Given back: Fulfilled

====

study_target: Androgen receptor of prostate of rats (Rattus norvegicus)
Construct: The prostates were removed, weighed and homogenized at 0° C; from tissue; host or cells: rat prostate, 105,000 g supernatant (castrated male Sprague-Dawley rats)
Sequence (P15207 whole entry S389L): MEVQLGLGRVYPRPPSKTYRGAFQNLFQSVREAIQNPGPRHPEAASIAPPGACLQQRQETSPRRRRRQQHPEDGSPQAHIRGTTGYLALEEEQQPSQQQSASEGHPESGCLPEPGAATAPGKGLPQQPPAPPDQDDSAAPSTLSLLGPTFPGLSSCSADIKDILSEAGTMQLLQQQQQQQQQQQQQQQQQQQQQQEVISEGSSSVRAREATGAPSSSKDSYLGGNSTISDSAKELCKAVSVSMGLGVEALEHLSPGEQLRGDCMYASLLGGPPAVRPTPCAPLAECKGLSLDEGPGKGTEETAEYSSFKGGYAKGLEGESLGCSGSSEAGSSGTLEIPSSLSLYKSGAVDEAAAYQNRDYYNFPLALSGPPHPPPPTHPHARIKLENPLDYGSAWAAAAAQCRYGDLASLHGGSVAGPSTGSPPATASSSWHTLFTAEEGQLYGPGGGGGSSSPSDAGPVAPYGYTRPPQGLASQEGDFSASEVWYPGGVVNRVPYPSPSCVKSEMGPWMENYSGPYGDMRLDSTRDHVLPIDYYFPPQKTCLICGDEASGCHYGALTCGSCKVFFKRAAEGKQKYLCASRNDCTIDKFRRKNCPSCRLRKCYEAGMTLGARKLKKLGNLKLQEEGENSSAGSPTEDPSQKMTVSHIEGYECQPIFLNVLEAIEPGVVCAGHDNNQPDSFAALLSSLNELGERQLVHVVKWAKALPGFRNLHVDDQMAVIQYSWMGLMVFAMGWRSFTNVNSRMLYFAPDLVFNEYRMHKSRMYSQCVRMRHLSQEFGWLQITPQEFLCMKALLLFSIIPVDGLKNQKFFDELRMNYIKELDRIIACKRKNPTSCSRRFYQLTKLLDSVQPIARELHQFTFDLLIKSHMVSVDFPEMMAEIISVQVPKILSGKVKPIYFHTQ
protocol_text: Androgen receptor binding (displacement of tritiated product P)
test_settings: second table; incubation 24 H at 0° C.
Protocol: B. Androgen receptor of prostate of rats Male Sprague-Dawley EPOS rats weighing of 160 to 200 g were castrated and 24 hours later, the animals were killed. […] The concentration of tied tritiated (B) was measured for each incubate by the technique of adsorption on carbon-dextran. The calculation of the relative affinity of […] (ARL) was identical for all of the above receptor tests. […] One determined the line of the equation. […]
reported_metric: relative affinity of tieing (ARL), Androgen

Consider the worked cases shown below.
C[C@]12C[C@H](c3ccc([N+](C)(C)[O-])cc3)C3=C4CCC(=O)C=C4CC[C@H]3[C@@H]1CC[C@@]2(O)C#CCl: 9,8
CN(C)c1ccc([C@H]2C[C@@]3(C)[C@@H](CC[C@@]3(O)C#C[Si](C)(C)C)[C@@H]3CCC4=CC(=O)CCC4=C32)cc1: 4,6
C#C[C@]1(O)CC[C@H]2[C@@H]3CCC4=CC(=O)CCC4=C3[C@@H](c3ccc(N(C)C)cc3)C[C@@]21C: 68
C=C(C)C#C[C@]1(O)CC[C@H]2[C@@H]3CCC4=CC(=O)CCC4=C3[C@@H](c3ccc(N(C)C)cc3)C[C@@]21C: 14,7
CC#C[C@]1(O)CC[C@H]2[C@@H]3CCC4=CC(=O)CCC4=C3[C@@H](c3ccc([N+](C)(C)[O-])cc3)C[C@@]21C: 2,2

# context switch: different molecule, same relative affinity of tieing (ARL), Androgen
Asked: Request the reported relative affinity of tieing (ARL), Androgen associated with C=CC[C@]1(O)CC[C@H]2[C@@H]3CCC4=CC(=O)CCC4=C3[C@@H](c3ccc(N(C)C)cc3)C[C@@]21C
Given back: 8

====

study_target: Progestogen receptor of the uterus of rabbits (Oryctolagus cuniculus)
Construct: The uterus was removed, weighed and homogenized at 0° C; from tissue; host or cells: rabbit uterus, 105,000 g supernatant (estradiol-primed immature rabbits)
protocol_text: Progestogen receptor binding (displacement of tritiated product R)
Parameters: species or system rabbit
test_settings: second table; incubation 24 H at 0° C.
reported_metric: relative affinity of tieing (ARL), Progestogen

C[C@]12C[C@H](c3ccc([N+](C)(C)[O-])cc3)C3=C4CCC(=O)C=C4CC[C@H]3[C@@H]1CC[C@@]2(O)C#CCl: 8,3
CC#C[C@]1(O)CC[C@H]2[C@@H]3CCC4=CC(=O)CCC4=C3[C@@H](c3ccc([N+](C)(C)[O-])cc3)C[C@@]21C: 2,5

# context switch: different compound, same relative affinity of tieing (ARL), Progestogen
Asked: Request the reported relative affinity of tieing (ARL), Progestogen associated with C#C[C@@]1(O)CC[C@H]2[C@@H]3CCC4=CC(=O)CCC4=C3[C@@H](c3ccc(N(C)C)cc3)C[C@@]21C
Given back: 4,3

Each recorded value in this set is attributed to patent US5043332A.
